# reported pEC50; entries follow
Target: human calcitonin receptor (CTR) and RAMP3 (AMY3) (Homo sapiens, UniProt O60896+P30988)
Sequence (O60896 24-148): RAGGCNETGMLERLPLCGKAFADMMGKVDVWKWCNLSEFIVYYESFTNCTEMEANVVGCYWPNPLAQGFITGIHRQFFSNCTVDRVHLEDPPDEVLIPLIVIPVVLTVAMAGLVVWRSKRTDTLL
Sequence (P30988 25-474): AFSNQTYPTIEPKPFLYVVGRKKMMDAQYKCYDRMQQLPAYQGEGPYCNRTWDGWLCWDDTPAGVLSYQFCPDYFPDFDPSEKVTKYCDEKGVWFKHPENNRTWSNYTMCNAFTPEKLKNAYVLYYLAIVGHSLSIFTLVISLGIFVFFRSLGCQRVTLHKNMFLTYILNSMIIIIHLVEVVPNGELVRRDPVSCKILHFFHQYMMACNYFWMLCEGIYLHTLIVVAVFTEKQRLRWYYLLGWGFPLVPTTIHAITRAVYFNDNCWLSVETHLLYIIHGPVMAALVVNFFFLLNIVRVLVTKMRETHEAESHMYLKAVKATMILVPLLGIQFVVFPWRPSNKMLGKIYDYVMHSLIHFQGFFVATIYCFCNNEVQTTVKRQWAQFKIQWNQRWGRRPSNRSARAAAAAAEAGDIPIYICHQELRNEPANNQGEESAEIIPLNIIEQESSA
Assay Overview: Amylin Receptor cAMP Assay II
Format: cell-based
Cond: COS-7/AMY3 cells, cAMP dynamic 2 kit, read-out: Amylin Receptor cAMP Stimulation Activity: EC50
In simple prose, pEC50 is minus the logarithm base ten of a concentration in moles per litre.

# Compound, pEC50
measured = [
    ("Cc1nnc(-c2c(CCC3CCOCC3)nc3c(c2-c2ccc4c(c2)oc(=O)n4Cc2ccc(C#N)cn2)C(=O)N2CCC[C@@H]32)o1", 6.76),
]

Let us examine a further case.
Kindly note the recorded pEC50 for Cc1nnc(-c2c(CCC3CCOCC3)nc3c(c2-c2ccc4c(c2)oc(=O)n4Cc2ccc(C#N)c(F)c2)S(=O)(=O)CC3C(C)C)o1 (stereo not drawn) , which is 7.19

Value source: patent US20250051355A1
